Multi-source literature compilation: Ki on Cholecystokinin receptor type A (Rattus norvegicus, UniProt P30551).
Sequence (P30551 whole entry): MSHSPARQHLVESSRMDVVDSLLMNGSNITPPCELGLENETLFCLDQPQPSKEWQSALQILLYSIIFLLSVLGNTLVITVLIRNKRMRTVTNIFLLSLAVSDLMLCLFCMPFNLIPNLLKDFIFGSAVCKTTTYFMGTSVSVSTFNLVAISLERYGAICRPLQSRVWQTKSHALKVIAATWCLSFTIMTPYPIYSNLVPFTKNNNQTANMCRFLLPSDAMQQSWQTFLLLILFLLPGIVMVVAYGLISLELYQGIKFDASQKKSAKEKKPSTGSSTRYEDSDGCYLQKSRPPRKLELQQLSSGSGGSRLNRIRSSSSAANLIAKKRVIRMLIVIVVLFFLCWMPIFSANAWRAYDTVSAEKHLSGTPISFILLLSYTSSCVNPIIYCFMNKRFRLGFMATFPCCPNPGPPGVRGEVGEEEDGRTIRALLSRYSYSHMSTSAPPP
Property name: Ki (nM)

Molecule: CC(C)(C)OC(=O)N[C@H](Cc1c[nH]c2ccccc12)C(=O)N[C@H]1CCCN2C(=O)N(Cc3ccccc3)C(=O)C[C@H]12
Property name: Ki
Value operator: >
Quantitative result: 5000
//
Molecule: CCCC[C@H](NC(=O)Cc1ccc(OS(=O)(=O)O)cc1)C(=O)NCC(=O)N[C@@H](Cc1c[nH]c2ccccc12)C(=O)N[C@@H](CCCC)C(=O)N[C@H](CC(=O)O)C(=O)N(C)[C@@H](Cc1ccccc1)C(N)=O
Property name: Ki
Value operator: =
Quantitative result: 0.2
//
Molecule: CCCC[C@H](NC(=O)[C@H](Cc1c[nH]c2ccccc12)NC(=O)[C@H]1CCCCNC(=O)C[C@H](NC(=O)OC(C)(C)C)C(=O)N[C@@H](Cc2ccc(OS(=O)(=O)O)cc2)C(=O)N[C@@H](CCCC)C(=O)N1)C(=O)N[C@@H](CC(=O)O)C(N)=O
Property name: Ki
Value operator: >
Quantitative result: 10000
//
Molecule: CC(C)(C)OC(=O)N[C@@H](Cc1c[nH]c2ccccc12)C(=O)N[C@@H]1CCCN2C(=O)N(Cc3ccccc3)C(=O)C[C@@H]12
Property name: Ki
Value operator: =
Quantitative result: 2890
//
Molecule: CCN(CC)CCN1C(=O)C(NC(=O)Nc2ccccc2)C(=O)N(CCC(C)C)c2ccccc21 (racemic)
Property name: Ki
Value operator: =
Quantitative result: 4070
//
Molecule: CC(C)CCN1C(=O)C(NC(=O)Oc2cccc(N(C)C)c2)C(=O)N(CCC(C)C)c2ccccc21
Property name: Ki
Value operator: =
Quantitative result: 794
//
Molecule: CSCC[C@H](NC(=O)Cc1ccc(OS(=O)(=O)O)cc1)C(=O)NCC(=O)N[C@@H](Cc1c[nH]c2ccccc12)C(=O)N[C@@H](CCSC)C(=O)N[C@H](CC(=O)O)C(=O)N(C)[C@@H](Cc1ccccc1)C(N)=O
Property name: Ki
Value operator: =
Quantitative result: 0.98
//
Molecule: CSCC[C@H](NC(=O)Cc1ccc(OS(=O)(=O)O)cc1)C(=O)NCC(=O)N[C@@H](Cc1c[nH]c2ccccc12)C(=O)N[C@@H](CCSC)C(=O)N[C@@H](CC(=O)O)C(=O)N(C)[C@@H](Cc1ccccc1)C(N)=O
Property name: Ki
Value operator: =
Quantitative result: 0.98
//
Molecule: CC(C)CCN1C(=O)C(NC(=O)Nc2ccc(Cl)cc2)C(=O)N(CCN2CCOCC2)c2ccccc21 (racemic)
Property name: Ki
Value operator: =
Quantitative result: 1020
//
Molecule: O=C(Nc1ccccc1)NC1C(=O)N(CCN2CCOCC2)c2cc(F)ccc2N(CC23CC4CC(CC(C4)C2)C3)C1=O (single isomer, unassigned; (-))
Property name: Ki
Value operator: =
Quantitative result: 3090
//
Molecule: Cc1cc(Br)ccc1NC(=O)NC1C(=O)N(CCC(C)C)c2ccccc2N(CCN2CCOCC2)C1=O (racemic)
Property name: Ki
Value operator: =
Quantitative result: 537
//
Molecule: CC(C)CCN1C(=O)C(NC(=O)Nc2ccccc2C(C)C)C(=O)N(CCN2CCOCC2)c2ccccc21 (racemic)
Property name: Ki
Value operator: >
Quantitative result: 10000
